- Test system: A549/ATCC NSCLC
- assay.explanation: NCI-60 one-dose screen, 48 h (100 = growth as untreated, 0 = no growth, -100 = all killed)
- condition.notes: 10 µM unless noted
This is part of a sample that, as a whole, favours compounds with a hit. Of some 83,000 tested, about 20% had one in any assay.
Exam item: assign met to entries whose growth is below -40% and not met to entries at or above -40%. Note that a value of exactly -40% receives not met.

Request: Please indicate whether the reported growth of O=C(O)CNC(=O)C(Cl)(Cl)Cl is strictly below -40%.
Result: not met

Request: Is it true that growth reported for Cn1cccc1C1CC(=O)N(CCC[Se]C#N)C1=O (stereo not given) is less than -40%?
Result: not met

Request: # TODO verify growth < -40% strictly for this molecule: COc1ccc(O)c(CNC(=O)CN2CCCC2=O)c1
Result: not met

Request: Input CCC1CC(O)c2c(O)c3c(c(O)c2C1O)C(=O)c1cccc(O)c1C3=O (stereo not given) (tested in a mixture with another compound) ; condition: growth strictly below -40%. Does it hold?
Result: not met

Request: Just wondering, is growth of C=C1C[C@](OC)([C@H](O)C(=O)N[C@@H](OC)[C@@H]2C[C@@H](O)C(C)(C)[C@@H](C[C@@H](COC)OC)O2)O[C@H](C)[C@@H]1C below -40%?
Result: met
